Target: T1, Lassa NPn (N-terminal portion of NP encoding residues 1-340) (Lassa virus lineage IV, strain Josiah, UniProt P13699)
T1 construct: source: bought: Zalgen (recombinant)
T1 sequence (P13699 1-340): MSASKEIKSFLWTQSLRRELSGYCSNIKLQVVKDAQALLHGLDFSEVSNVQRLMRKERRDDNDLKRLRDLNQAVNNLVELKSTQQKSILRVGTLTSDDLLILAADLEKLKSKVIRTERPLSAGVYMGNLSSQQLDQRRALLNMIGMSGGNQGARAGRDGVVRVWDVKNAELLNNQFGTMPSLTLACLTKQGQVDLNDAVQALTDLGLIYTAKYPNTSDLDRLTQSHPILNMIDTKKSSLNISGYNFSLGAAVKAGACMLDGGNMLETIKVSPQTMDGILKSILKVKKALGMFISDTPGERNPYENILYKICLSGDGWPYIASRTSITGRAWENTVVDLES
Assay: SPR; ProteOn XPR36; […] (20 ug/mL in 10 mM sodium acetate pH 5.0); […]; Langmuir model
Settings: both partners purified
MEASURED_PARAMETER: kon

BINDER	OBSERVED_MEASUREMENT
sdAb E11 (VHH, source: E. coli Tuner (DE3), periplasmic, purified (osmotic shock, IMAC, gel filtration)) VHH: EVQLQASGGGLAQPGGSLRLSCAASGFTLVYYGIGWFRQAPGKEREGVSCISSNDGTTYYADSVKGRFTISRDNAKNTVYLQMNSLKPEDTAVYYCATELGNTHRGSYFPKQRVERCHTGDFASWGQGTQVTVSS	150000 M⁻¹ s⁻¹
sdAb B5 (VHH, source: E. coli Tuner (DE3), periplasmic, purified (osmotic shock, IMAC, gel filtration)) VHH: EVQLQASGGGLAQPGGSLRLSCAASGFTLVYYGIGWFRQAPGKEREGVSCISSNDGSTYYADSVKGRFTISRDAAKNTVYLQMNSLKPEDTAVYYCATELGNTHRGSFFPNRRVERCRTDDFASWGQGTQVTVSS	320000 M⁻¹ s⁻¹
sdAb G11 (VHH, source: E. coli Tuner (DE3), periplasmic, purified (osmotic shock, IMAC, gel filtration)) VHH: DVQLQASGGGLVQAGDSLTLSCAASGRTVSPYGVGWFRQAPGREREFVAALSRSGTFTAYADSVKGRFTISRDNAKNTVYLQMNSLKPDDTAVYHCAARSASSYYSTYRKEDDYHYWGQGTQVTVSS	380000 M⁻¹ s⁻¹
